System: bloodstream forms of Trypanosoma brucei
Run Description: Resazurin cell viability assay, EC50 determinations against T. brucei
Format: cell-based, T. b. brucei (strain 427)
Test Context: Trypanosoma brucei, 72 h, read-out: EC50 vs. T. brucei
Structures can show the parent of a compound that is named as a salt.
Lab note: cut-off is 800 nM. Strictly less in EC50 is TRUE. Exactly 800 nM or more is FALSE.

                                   compound  label_class
0         CN(N=O)c1cc(O)ccc1O [Dephostatin]        FALSE
1  CCn1cnc2c(Nc3cccc(Cl)c3)nc(N[C@@H]3CCCC[C@@H]3N)nc21.Cl (relative stereo) [CGP-74514A]         TRUE
2  Nc1ccn([C@H]2CC[C@@H](CO)O2)c(=O)n1 [2′,3′-Dideoxycytidine]        FALSE

hey, is EC50 for CC1(C)CCC2=C(O1)c1ccccc1C(=O)C2=O [Beta-Lapachone] lower than 800 nM or not?
FALSE

hey, is EC50 for O=C1Cc2c([nH]c3ccc(Br)cc23)-c2ccccc2N1 [Kenpaullone] lower than 800 nM or not?
FALSE

hey, is EC50 for Nc1nc2ccc(Cl)cc2c2nc(-c3ccco3)nn12 [CGS-15943] lower than 800 nM or not?
FALSE

hey, is EC50 for O=[N+]([O-])c1ccc(CSc2ncnc3c2ncn3[C@@H]2O[C@H](CO)[C@@H](O)[C@H]2O)cc1 [S-(4-Nitrobenzyl)-6-thioinosine] lower than 800 nM or not?
FALSE

hey, is EC50 for Br.CN1Cc2sccc2C(c2ccc(O)c(O)c2)C1 (centres unmarked) [SKF 89145 hydrobromide] lower than 800 nM or not?
TRUE

hey, is EC50 for CCCN(CCC)CCc1ccc(O)c(O)c1 [Dipropyldopamine hydrobromide] lower than 800 nM or not?
FALSE

Recorded values, source paper PMC3025325.
